Molecular target: Dihydrofolate reductase (Mycobacterium avium, UniProt O30463)
Sequence (O30463 whole entry): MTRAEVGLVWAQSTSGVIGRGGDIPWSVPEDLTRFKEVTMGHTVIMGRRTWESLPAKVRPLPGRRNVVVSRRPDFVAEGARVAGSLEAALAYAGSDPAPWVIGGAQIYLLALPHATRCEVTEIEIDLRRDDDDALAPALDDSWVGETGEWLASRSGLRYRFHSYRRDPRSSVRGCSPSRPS
Recorded Endpoint: pIC50
Reminder that pIC50 means the negative base-10 logarithm of the concentration expressed in mol/L.

Record excerpt, results attached:
Prompt: Given the compound `CC1(C)N=C(N)N=C(N)N1c1ccc(OCc2cccc(Cl)c2)cc1` , what is its reported pIC50?
Response: 5.39

Prompt: Now the same for `NC(N)=N/C(N)=N/c1ccc(OCc2ccc(-c3ccccc3)cc2)cc1`
Response: 3.98

Prompt: Now the same for `CC1(C)N=C(N)N=C(N)N1c1ccc(OCCCCN2C(=O)c3ccccc3C2=O)cc1`
Response: 5.05

Prompt: Now the same for `CC1(C)N=C(N)N=C(N)N1c1ccc(OCc2ccccc2Cl)cc1`
Response: 4.99

Further cases:
Prompt: Given the compound `N=C(N)NC(=N)Nc1ccc(OCCCN2C(=O)c3ccccc3C2=O)cc1` , what is its reported pIC50?
Response: 3.97

Prompt: Now the same for `CC1(C)N=C(N)N=C(N)N1c1ccc(OCc2ccc(Br)cc2)cc1`
Response: 5.14

Prompt: Now the same for `CC1(C)N=C(N)N=C(N)N1c1ccc(OCCCN2C(=O)c3ccccc3C2=O)cc1`
Response: 4.45
